Values compiled from the supplement of paper PMC4466140.

Reported SPOT peptide array binding signal intensity is given for each of the following binders.
target: AgMyo5; test: SPOT peptide array binding signal intensity (averaged, normalized) (arbitrary units (background-subtracted, floor 0; scale differs between SH3 domains)); higher = stronger binding of the SH3 domain to the peptide

INPUT: Look up SPOT peptide array binding signal intensity of NFLRLLIGLPSQNEL and report it.
OUTPUT: 2.75

INPUT: Return value of SPOT peptide array binding signal intensity for input TPEIPPPLPPKIMVH , no commentary.
OUTPUT: 496

INPUT: Give the reported SPOT peptide array binding signal intensity for this binder. GRLRPKRIAPWHLIQ
OUTPUT: 0.5

INPUT: Tell me its SPOT peptide array binding signal intensity given MAMRPIPPLPTESEY as the entry.
OUTPUT: ≤ 0

INPUT: Supply measured SPOT peptide array binding signal intensity of DDEDVPPQLPTRTKS in your reply.
OUTPUT: 1.75

---
INPUT: Using known records, supply SPOT peptide array binding signal intensity for FVLRYYILIPHEQWD
OUTPUT: 1

INPUT: Give a short answer stating reported SPOT peptide array binding signal intensity for RRARRQMGIPTISQV .
OUTPUT: 5

INPUT: Entry NTMKKRPAPPSLPSL needs its SPOT peptide array binding signal intensity filled in; supply it.
OUTPUT: 66.5

INPUT: Tell me its SPOT peptide array binding signal intensity given PLRRTVMSLPGNHDI as the entry.
OUTPUT: 3
